- study-target: RIPK2 (KD)/XIAP (BIR2) (Homo sapiens, UniProt O43353)
- Construct: made in house; host or cells: baculovirus-infected Sf9 cells
- Sequence (O43353 1-310): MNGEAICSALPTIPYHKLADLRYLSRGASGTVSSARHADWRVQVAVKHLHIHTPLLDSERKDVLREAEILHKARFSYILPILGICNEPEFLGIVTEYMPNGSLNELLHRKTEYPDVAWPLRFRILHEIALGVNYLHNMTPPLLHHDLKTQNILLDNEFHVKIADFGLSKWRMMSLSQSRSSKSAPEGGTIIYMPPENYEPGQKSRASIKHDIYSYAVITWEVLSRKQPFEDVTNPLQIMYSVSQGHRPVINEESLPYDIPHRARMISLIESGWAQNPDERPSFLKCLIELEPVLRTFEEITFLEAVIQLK
- test-protocol: RIPK2-XIAP binding competition PPI assay (TR-FRET)
- condition-description: 50 nM of GSK583 = -100% activity, read-out: PPI Amax
Parameter Emax: see the listing below.
observable: Emax

1) COc1cc2ncc(-c3cc(C(=O)NCc4ncc(C)s4)n(C)n3)n2cc1S(=O)(=O)C(C)(C)C ... ≥ 80%
2) COc1cc2ncc(-n3cc(NC(=O)[C@H](C)c4ccccc4)cn3)n2cc1S(=O)(=O)C(C)(C)C ... ≥ 80%
3) COc1cc2ncc(-n3cc(NC(=O)c4ccccc4)cn3)n2cc1S(=O)(=O)C(C)(C)C ... 55 to 80%
4) CN1CCC(Nc2cncc(-c3cc(NC(=O)Cc4ccccc4Cl)n(C)n3)c2)CC1 ... ≥ 80%

----------
Parameter IC50: see the listing below.
- study-target: RIPK2 (KD)/XIAP (BIR2) (Homo sapiens, UniProt O43353)
- test-protocol: RIPK2-XIAP binding competition PPI assay (TR-FRET)
- condition-description: GST-RIPK2 / His-XIAP (BIR2)-avi, 120 min at 23° C.
observable: IC50

1. COc1cc2ncc(-c3cc(C(=O)NCc4ncccc4OC)n(C)n3)n2cc1S(=O)(=O)C(C)(C)C ... 100 to 1000 nM
2. CCn1nc(-c2cnc3cc(OCCO)c(S(=O)(=O)C(C)(C)C)cn23)cc1C(=O)N[C@H](C)c1nccs1 ... < 10 nM
3. COc1cc2ncc(-c3cc(C(=O)NCc4ncc(F)cc4F)n(C)n3)n2cc1S(=O)(=O)C(C)(C)C ... 100 to 1000 nM
4. COc1cc2ncc(-c3cc(C(=O)N[C@H](C)c4cn(C)cn4)n(C)n3)n2cc1S(=O)(=O)C(C)(C)C ... 100 to 1000 nM
5. COc1cc2ncc(-n3cc(NC(C)=O)cn3)n2cc1S(=O)(=O)C(C)(C)C ... > 1000 nM
6. COc1cc2ncc(-n3cc(C(=O)NCc4c(F)cc(F)cc4F)cn3)n2cc1S(=O)(=O)C(C)(C)C ... > 1000 nM
7. COc1cc2ncc(-c3cc(C(=O)N[C@H](C)c4ccccn4)[nH]n3)n2cc1S(=O)(=O)C(C)(C)C ... 10 to 100 nM
8. COc1cc2ncc(-c3cc(NC(=O)Cc4ccccc4Cl)n(C)n3)n2cc1S(=O)(=O)C(C)(C)C ... 10 to 100 nM
9. COc1cc2ncc(-c3cc(C(=O)NCc4cccnn4)n(C)n3)n2cc1S(=O)(=O)C(C)(C)C ... > 1000 nM
10. COc1cc2ncc(-c3cc(C(=O)NCC4CC4)n(C)n3)n2cc1S(=O)(=O)C(C)(C)C ... > 1000 nM
11. COc1cc2ncc(-c3cc(C(=O)NCc4ccsn4)n(C)n3)n2cc1S(=O)(=O)C(C)(C)C ... 10 to 100 nM
12. COc1cc2ncc(-c3cc(C(=O)N[C@H](C)c4ccccn4)n(C)n3)n2cc1C1(F)CCN(C)CC1 ... 10 to 100 nM
13. COc1cc2ncc(-c3cc(C(=O)NCc4ncccc4C)n(C)n3)n2cc1S(=O)(=O)C(C)(C)C ... 100 to 1000 nM
14. COc1cc2ncc(-c3cc(C(=O)N[C@@H](C)c4ncccc4F)n(C)n3)n2cc1S(=O)(=O)C(C)(C)C ... > 1000 nM
15. COc1cc2ncc(-c3cc(C(=O)NCc4ncccc4Cl)n(C)n3)n2cc1S(=O)(=O)C(C)(C)C ... 10 to 100 nM
16. C[C@H](CO)COc1cc2ncc(-c3cc(NC(=O)Cc4ccccc4Cl)n(C)n3)n2cc1S(=O)(=O)C(C)(C)C ... < 10 nM
17. COc1cc2ncc(-c3cc(C(=O)NCc4ccn(C)n4)n(C)n3)n2cc1S(=O)(=O)C(C)(C)C ... 100 to 1000 nM
18. COc1cc2ncc(-c3cc(C(=O)NCc4ncccc4F)n(C)n3)n2cc1S(=O)(=O)C(C)(C)C ... 10 to 100 nM
19. COc1cc2ncc(-c3cc(C(=O)NCc4cscn4)n(C)n3)n2cc1S(=O)(=O)C(C)(C)C ... 10 to 100 nM
20. C[C@@H](NC(=O)c1cc(-c2cnc3cc(OCCO)c(S(=O)(=O)C(C)(C)C)cn23)nn1C)c1ccccn1 ... 10 to 100 nM
21. COc1cc2ncc(-c3cc(C(=O)NCC4CCCC4)n(C)n3)n2cc1S(=O)(=O)C(C)(C)C ... 100 to 1000 nM
22. CC[C@@H](NC(=O)c1cc(-c2cnc3cc(OC)c(S(=O)(=O)C(C)(C)C)cn23)nn1C)c1ccccn1 ... 100 to 1000 nM
23. COc1cc2ncc(-c3cc(C(=O)NCc4nc(C)c(C)s4)n(C)n3)n2cc1S(=O)(=O)C(C)(C)C ... 100 to 1000 nM
24. COc1cc2ncc(-c3cc(NC(=O)O[C@H](C)c4ccccc4)n(C)n3)n2cc1S(=O)(=O)C(C)(C)C ... < 10 nM
25. COc1cc2ncc(-c3cc(C(=O)NCc4ccc(F)cn4)n(C)n3)n2cc1S(=O)(=O)C(C)(C)C ... 100 to 1000 nM
26. COc1ccccc1[C@@H](C)NC(=O)c1cc(-c2cnc3cc(OCCO)c(S(=O)(=O)C(C)(C)C)cn23)nn1C ... 10 to 100 nM
27. COc1cc2ncc(-n3cc(C(=O)NCc4ccccc4)cn3)n2cc1S(=O)(=O)C(C)(C)C ... 100 to 1000 nM
28. COc1cc2ncc(-n3cc(N4CCC(c5ccccc5)C4=O)cn3)n2cc1S(=O)(=O)C(C)(C)C (single isomer, unassigned) [Example 183] ... > 1000 nM
29. COc1cc2ncc(-n3cc(NC(=O)N4CCCC4c4ccccc4)cn3)n2cc1S(=O)(=O)C(C)(C)C (racemic) [Example 177] ... > 1000 nM
